# MIC annotations
# Test system: up to 32 different microorganisms
# measurement.description: in vitro antibacterial activity (MIC), agar dilution on Brain Heart Infusion (BHI) agar with Steers replicator
# Format: cell-based
# details: Staphylococcus aureus ATCC 6538P (code AA); unit assumed
Give a bare numeral; the unit µg/mL is implied.

chemical.smiles	tested.target	MIC [µg/mL]
CC[C@H]1OC(=O)[C@H](C)C(=O)[C@H](C)[C@@H](O[C@@H]2O[C@H](C)C[C@H](N(C)C)[C@H]2O)[C@@](C)(OCCCc2ccccc2)C[C@@H](C)C(=O)[C@H](C)[C@@H](O)[C@]1(C)O	up to 32 different microorganisms	6.2
CC[C@H]1OC(=O)[C@H](C)C(=O)[C@H](C)[C@@H](O[C@@H]2O[C@H](C)C[C@H](N(C)C)[C@H]2O)[C@@](C)(OCC=Cc2ccc(Cl)cc2)C[C@@H](C)C(=O)[C@H](C)[C@H]2OC(=O)O[C@@]21C	up to 32 different microorganisms	0.2
CC[C@H]1OC(=O)[C@H](C)C(=O)[C@H](C)[C@@H](O[C@@H]2O[C@H](C)C[C@H](N(C)C)[C@H]2O)[C@@](C)(OCC=Cc2cnc3ccccc3c2)C[C@@H](C)C(=O)[C@H](C)[C@H]2OC(=O)O[C@@]21C	up to 32 different microorganisms	0.1

# MIC lookup, item `C=CCO[C@@]1(C)C[C@@H](C)C(=O)[C@H](C)[C@H]2OC(=O)O[C@]2(C)[C@@H](CC)OC(=O)[C@H](C)C(=O)[C@H](C)[C@H]1O[C@@H]1O[C@H](C)C[C@H](N(C)C)[C@H]1O` 0.78

# MIC lookup, item `CCCO[C@@]1(C)C[C@@H](C)C(=O)[C@H](C)[C@@H](O)[C@](C)(O)[C@@H](CC)OC(=O)[C@H](C)C(=O)[C@H](C)[C@H]1O[C@@H]1O[C@H](C)C[C@H](N(C)C)[C@H]1O` 25

###

# MIC annotations
# Test system: up to 32 different microorganisms
# measurement.description: in vitro antibacterial activity (MIC), agar dilution on Brain Heart Infusion (BHI) agar with Steers replicator
# Format: cell-based
# details: Enterococcus faecism ATCC 8043 (code II); unit assumed
Give a bare numeral; the unit µg/mL is implied.

chemical.smiles	tested.target	MIC / µg/mL
CC[C@H]1OC(=O)[C@H](C)C(=O)[C@H](C)[C@@H](O[C@@H]2O[C@H](C)C[C@H](N(C)C)[C@H]2O)[C@@](C)(OCC=Cc2ccccc2)C[C@@H](C)C(=O)[C@H](C)[C@@H](O)[C@]1(C)O	up to 32 different microorganisms	0.78

Could you now consider this next compound?
# MIC lookup, item `CCCO[C@@]1(C)C[C@@H](C)C(=O)[C@H](C)[C@@H](O)[C@](C)(O)[C@@H](CC)OC(=O)[C@H](C)C(=O)[C@H](C)[C@H]1O[C@@H]1O[C@H](C)C[C@H](N(C)C)[C@H]1O` 25

###

# Tested on: up to 32 different microorganisms
# measurement.description: in vitro antibacterial activity (MIC), agar dilution on Brain Heart Infusion (BHI) agar with Steers replicator
# Assay type: cell-based
# details: Staphylococcus aureus CMX 553 (code FF); unit assumed
# MIC annotations
Units required after the number.

molecule	MIC
CC[C@H]1OC(=O)[C@H](C)C(=O)[C@H](C)[C@@H](O[C@@H]2O[C@H](C)C[C@H](N(C)C)[C@H]2O)[C@@](C)(OCCCc2ccccc2)C[C@@H](C)C(=O)[C@H](C)[C@H]2OC(=O)O[C@@]21C [Example 73]	0.39 µg/mL

# MIC lookup, item CC[C@H]1OC(=O)[C@H](C)C(=O)[C@H](C)[C@@H](O[C@@H]2O[C@H](C)C[C@H](N(C)C)[C@H]2O)[C@@](C)(OCC=NO)C[C@@H](C)C(=O)[C@H](C)[C@@H](O)[C@]1(C)O [Example 5] 12.5 µg/mL

Provenance of the data: patent USRE39591E1
